# Tested on: U2OS
# ASSAY_NOTES: Multiplex assay against U2OS
# Type: toxicity, cell-based
# TEST_CONDITIONS: human, 12 h, 1 µM, compound concentration 1 uM, replicate 1
Think of 80% as a floor: if Population Apoptotic (%) stands on it or above, it is rule met; beneath it, rule not met.

Consider the worked cases shown below.
>  <COMPOUND>
Cc1c(Cc2ccc3ccccc3n2)c2cc(F)ccc2n1CC(=O)O [TIMAPIPRANT]

>  <ASSIGNED_CLASS>
rule met

$$$$
>  <COMPOUND>
Cc1ccc(OCC(O)C(C)NC(C)C)c2c1CCC2.Cl (centres undefined)

>  <ASSIGNED_CLASS>
rule not met

$$$$
>  <COMPOUND>
O=C(Nc1cc(-c2ccccc2)nn1-c1ccccc1F)c1ccc([N+](=O)[O-])cc1

>  <ASSIGNED_CLASS>
rule met

$$$$

Determine whether this compound has Population Apoptotic (%) no lower than 80%: CCCCC[C@H](O)/C=C/[C@H]1[C@H](O)CC(=O)[C@@H]1CCCCCCC(=O)O [ALPROSTADIL]
rule met

Determine whether this compound has Population Apoptotic (%) no lower than 80%: Nc1nc(CC(=O)Nc2ccc(CCNC[C@H](O)c3ccccc3)cc2)cs1 [MIRABEGRON]
rule met

Determine whether this compound has Population Apoptotic (%) no lower than 80%: `OCCCNc1cc(-c2ccnc(Nc3cccc(Cl)c3)n2)ccn1`
rule met

Data origin: ChEMBL document CHEMBL5058577
